target: p110δ/p85α (Homo sapiens); experiment: Transcreener KINASE Assay, kinase inhibition of p110δ/p85α; type: biochemical; conditions: 1 uM test compound
Sequence (O00329 whole entry): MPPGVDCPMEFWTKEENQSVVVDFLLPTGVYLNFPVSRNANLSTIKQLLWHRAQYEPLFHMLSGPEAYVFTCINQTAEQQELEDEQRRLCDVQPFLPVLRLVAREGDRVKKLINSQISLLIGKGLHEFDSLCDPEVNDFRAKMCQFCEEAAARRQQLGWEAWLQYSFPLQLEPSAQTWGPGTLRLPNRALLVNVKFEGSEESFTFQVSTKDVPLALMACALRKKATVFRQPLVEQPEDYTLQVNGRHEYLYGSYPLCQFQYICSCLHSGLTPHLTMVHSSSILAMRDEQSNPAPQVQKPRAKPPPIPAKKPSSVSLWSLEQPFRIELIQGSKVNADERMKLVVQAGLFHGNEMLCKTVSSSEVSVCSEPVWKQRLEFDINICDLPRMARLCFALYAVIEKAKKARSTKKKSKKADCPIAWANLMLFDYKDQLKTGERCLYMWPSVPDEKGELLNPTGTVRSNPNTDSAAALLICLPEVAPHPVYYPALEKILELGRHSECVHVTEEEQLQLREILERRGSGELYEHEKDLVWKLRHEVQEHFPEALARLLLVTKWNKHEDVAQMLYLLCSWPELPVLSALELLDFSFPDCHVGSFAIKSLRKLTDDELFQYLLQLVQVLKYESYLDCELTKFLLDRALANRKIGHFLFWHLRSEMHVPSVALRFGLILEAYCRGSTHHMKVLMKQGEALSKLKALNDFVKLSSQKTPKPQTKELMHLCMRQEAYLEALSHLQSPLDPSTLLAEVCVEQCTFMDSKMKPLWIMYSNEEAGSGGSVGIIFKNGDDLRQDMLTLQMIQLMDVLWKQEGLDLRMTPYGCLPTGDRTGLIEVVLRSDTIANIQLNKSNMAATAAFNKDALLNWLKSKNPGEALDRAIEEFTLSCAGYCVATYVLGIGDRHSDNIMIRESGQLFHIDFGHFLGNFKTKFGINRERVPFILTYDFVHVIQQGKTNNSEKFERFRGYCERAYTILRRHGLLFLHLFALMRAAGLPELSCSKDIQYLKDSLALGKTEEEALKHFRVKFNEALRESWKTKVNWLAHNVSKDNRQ
Sequence (P27986 whole entry partner): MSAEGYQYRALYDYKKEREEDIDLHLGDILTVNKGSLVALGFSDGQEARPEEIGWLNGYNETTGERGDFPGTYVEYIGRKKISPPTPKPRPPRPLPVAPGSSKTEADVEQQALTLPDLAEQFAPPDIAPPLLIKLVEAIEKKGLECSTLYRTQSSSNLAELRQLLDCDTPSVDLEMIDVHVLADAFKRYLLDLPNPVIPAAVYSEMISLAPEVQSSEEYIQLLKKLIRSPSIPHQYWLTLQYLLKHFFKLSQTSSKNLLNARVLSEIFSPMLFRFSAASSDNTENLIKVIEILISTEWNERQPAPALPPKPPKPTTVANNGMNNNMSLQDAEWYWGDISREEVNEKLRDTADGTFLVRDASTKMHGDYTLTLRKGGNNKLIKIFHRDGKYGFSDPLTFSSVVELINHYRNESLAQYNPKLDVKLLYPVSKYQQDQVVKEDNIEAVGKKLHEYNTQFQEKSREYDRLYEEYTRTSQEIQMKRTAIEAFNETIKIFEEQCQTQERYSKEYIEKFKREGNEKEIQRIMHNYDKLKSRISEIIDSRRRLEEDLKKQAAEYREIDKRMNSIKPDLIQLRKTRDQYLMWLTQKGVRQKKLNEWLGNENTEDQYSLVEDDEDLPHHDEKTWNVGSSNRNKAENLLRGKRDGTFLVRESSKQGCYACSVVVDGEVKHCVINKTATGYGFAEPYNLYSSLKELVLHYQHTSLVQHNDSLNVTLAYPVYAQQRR
Below, each of the compounds is paired with its reported PI3Kδ IH % @ 1 uM value.

Record request: PI3Kδ IH % @ 1 uM value, item Cc1nc(N)nc(N2CC[C@H]2c2nn3ccc(Cl)c3c(=O)n2-c2ccccc2)c1Cl 98.0%

Record request: PI3Kδ IH % @ 1 uM value, item COCCO[C@H]1C[C@@H](c2nn3ccc(Cl)c3c(=O)n2-c2ccccc2)N(c2ncnc3[nH]cnc23)C1 >100%

Record request: PI3Kδ IH % @ 1 uM value, item Nc1nc(N2CC[C@H]2c2nn3ccc(Cl)c3c(=O)n2-c2ccccc2)c2ncccc2n1 25.7%

Record request: PI3Kδ IH % @ 1 uM value, item N#Cc1cnc(N)nc1N1C[C@@H](C#N)C[C@H]1c1nn2ccc(Cl)c2c(=O)n1-c1ccccc1 >100%

Record request: PI3Kδ IH % @ 1 uM value, item N#Cc1c[nH]c2ncnc(N3CC(F)(F)C[C@H]3c3nn4ccc(Cl)c4c(=O)n3-c3ccccc3)c12 >100%

Record request: PI3Kδ IH % @ 1 uM value, item N#C[C@@H]1C[C@@H](c2nn3ccc(Cl)c3c(=O)n2-c2ccccc2)N(c2ncnc3[nH]cnc23)C1 >100%

Record request: PI3Kδ IH % @ 1 uM value, item CC(=O)c1c[nH]c2ncnc(N3C[C@@H](F)C[C@H]3c3nn4ccc(Cl)c4c(=O)n3-c3ccccc3)c12 >100%

----------
target: p110γ (Homo sapiens, UniProt P48736); test: Transcreener KINASE Assay, kinase inhibition of p110γ; assay type: biochemical; conditions: 1 uM test compound
Sequence (P48736 whole entry): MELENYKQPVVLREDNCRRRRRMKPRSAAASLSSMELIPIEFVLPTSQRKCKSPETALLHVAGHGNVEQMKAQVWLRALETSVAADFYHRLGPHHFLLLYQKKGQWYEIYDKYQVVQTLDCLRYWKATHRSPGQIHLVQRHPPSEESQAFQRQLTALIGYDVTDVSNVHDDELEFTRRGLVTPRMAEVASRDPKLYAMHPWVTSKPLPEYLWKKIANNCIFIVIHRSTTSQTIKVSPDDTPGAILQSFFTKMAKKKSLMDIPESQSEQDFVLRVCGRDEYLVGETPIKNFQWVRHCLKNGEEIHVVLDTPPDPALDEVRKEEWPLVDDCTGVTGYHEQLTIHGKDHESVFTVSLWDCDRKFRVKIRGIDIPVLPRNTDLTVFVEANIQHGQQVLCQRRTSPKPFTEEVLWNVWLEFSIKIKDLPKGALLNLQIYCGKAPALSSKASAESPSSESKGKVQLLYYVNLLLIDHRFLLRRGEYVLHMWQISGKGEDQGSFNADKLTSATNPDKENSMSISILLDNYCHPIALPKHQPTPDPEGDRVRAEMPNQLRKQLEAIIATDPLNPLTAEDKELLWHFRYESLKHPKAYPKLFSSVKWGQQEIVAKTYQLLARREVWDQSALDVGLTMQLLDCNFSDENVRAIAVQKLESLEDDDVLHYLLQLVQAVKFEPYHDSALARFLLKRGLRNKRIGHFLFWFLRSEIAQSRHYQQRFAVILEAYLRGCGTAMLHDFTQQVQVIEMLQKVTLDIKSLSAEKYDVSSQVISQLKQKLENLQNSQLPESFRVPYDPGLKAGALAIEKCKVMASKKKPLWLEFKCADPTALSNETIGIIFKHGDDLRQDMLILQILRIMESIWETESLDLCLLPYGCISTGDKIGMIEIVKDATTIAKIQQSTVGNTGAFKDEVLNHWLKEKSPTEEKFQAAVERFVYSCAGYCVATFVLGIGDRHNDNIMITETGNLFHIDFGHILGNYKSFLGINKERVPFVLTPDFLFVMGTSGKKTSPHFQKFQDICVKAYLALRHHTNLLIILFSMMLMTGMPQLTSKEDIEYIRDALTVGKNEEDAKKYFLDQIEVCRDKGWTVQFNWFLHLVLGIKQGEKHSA
measured.metric: PI3Kγ IH % @ 1 uM (%)
Provide the reading as a plain figure in %.

CC(=O)c1cnc(N)nc1NC(C)c1cn2ccc(F)c2c(=O)n1-c1ccccc1 (single isomer, unassigned) :: 92.5

From here, focus on the item given below.
Record request: PI3Kγ IH % @ 1 uM value, item CNc1ncnc(N2CCC[C@H]2c2nn3ccc(Cl)c3c(=O)n2-c2ccccc2)n1 93.4

----------
biological target: p110δ/p85α (Homo sapiens); assay: Transcreener KINASE Assay, kinase inhibition of p110δ/p85α; details: read-out: PI3Kδ IC50
Below, each of the molecules is paired with its reported log10 of IC50 value.
The base-10 logarithm of IC50, taken with IC50 in nM, is what appears here.

Some solved entries appear below for comparison.
N#Cc1cnc(N)nc1N1CCC[C@H]1c1nn2ccc(Cl)c2c(=O)n1-c1ccc(F)cc1 [Compound 231] :: 0.95
O=c1c2c(Cl)ccn2nc([C@@H]2CCCN2c2ncnc3[nH]cnc23)n1-c1ccccc1 [Compound 26] :: 0.30
O=c1c2c(Cl)ccn2nc([C@@H]2CCCN2c2ncnc3[nH]cnc23)n1-c1ccncn1 [Compound 344] :: 1.93
O=C(NCCO)c1c[nH]c2ncnc(N3CC[C@H]3c3nn4ccc(Cl)c4c(=O)n3-c3ccccc3)c12 [Compound 304] :: 1.62
Nc1nc2c(c(N3CC[C@H]3c3nn4ccc(F)c4c(=O)n3-c3ccccc3)n1)C(=O)CCN2 [Compound 248] :: 0.95

Record request: log10 of IC50 value, item N#Cc1c[nH]c2ncnc(N3C[C@@H](O)C[C@H]3c3nn4ccc(Cl)c4c(=O)n3-c3cccc(F)c3)c12 [Compound 261] 0.00

Record request: log10 of IC50 value, item CC(=O)c1cnc(N)nc1N1C[C@H](C)[C@H]1c1nn2ccc(Cl)c2c(=O)n1-c1cccc(F)c1 [Compound 467] 0.00

Record request: log10 of IC50 value, item CC(=O)c1cnc(N)nc1N1CC[C@H]1c1nn2ccc(Cl)c2c(=O)n1-c1ccccc1 [Compound 299] 0.78

Record request: log10 of IC50 value, item CS(=O)(=O)c1c[nH]c2ncnc(N3CC[C@H]3c3nn4ccc(Cl)c4c(=O)n3-c3ccccc3)c12 [Compound 143] 1.85

Record request: log10 of IC50 value, item N#Cc1c[nH]c2ncnc(N3CC[C@H]3c3nn4ccc(Cl)c4c(=O)n3CC3CC3)c12 [Compound 371] 1.85

----------
Below, each of the compounds is paired with its reported PI3Kγ IH % @ 1 uM value.
Target: p110γ (Homo sapiens, UniProt P48736)
Assay: Transcreener KINASE Assay, kinase inhibition of p110γ
Type: biochemical
Details: 1 uM test compound
Method: Kinase Inhibition assays of p110α/p85α, p110β/p85α, p110δ/p85α and p110γ PI3K kinases including p110α/p85α, p110δ/p85α and p110γ are purchased from Invitrogen, and p110β/p85α is from Millipore. Primary screening data and IC50 values are measured using Transcreener™ KINASE Assay (Bellbrook, Catalog #3003-10K). […] The plate is sealed again and incubated for 60 min at room temperature, and then measure fluorescence polarization by Tecan Infinite F500 Reader. […]
Provide the reading as a plain figure in %.

COc1cccc(-n2c([C@@H]3CCN3c3ncnc4[nH]cc(C#N)c34)nn3ccc(Cl)c3c2=O)c1 :: 84.6
CC(Nc1ncnc(N)c1C#N)c1cn2ccc(Cl)c2c(=O)n1-c1cc(F)cc(F)c1 (centres unmarked) :: 87.9
COCC#Cc1c[nH]c2ncnc(N3CC[C@H]3c3nn4ccc(Cl)c4c(=O)n3-c3ccccc3)c12 :: 92.0
C[C@H]1CN(c2ncnc3[nH]cc(C#N)c23)[C@@H]1c1nn2ccc(Cl)c2c(=O)n1-c1ccccn1 :: 89.5
CC(Nc1nc(N)ncc1C#N)c1cn2ccc(Cl)c2c(=O)n1-c1ccccc1 (centres unmarked) :: 97.6

From here, focus on the item given below.
Record CC(=O)c1c[nH]c2ncnc(N3CC[C@H]3c3nn4ccc(Cl)c4c(=O)n3-c3ccc(F)cc3)c12 : what is its PI3Kγ IH % @ 1 uM with p110γ (Homo sapiens, UniProt P48736)? 85.5

----------
molecular target: p110α/p85α (Homo sapiens, UniProt P42336); assay: Transcreener KINASE Assay, kinase inhibition of p110α/p85α; type: biochemical; settings: 1 uM test compound
measured.metric: PI3Kα IH % @ 1 uM (%)
Provide the reading as a plain figure in %.

O=c1c2c(Cl)ccn2nc([C@@H]2C[C@H](F)CN2c2ncnc3[nH]cnc23)n1-c1ccccc1 [Compound 73] :: 33.6

From here, focus on the item given below.
Record request: PI3Kα IH % @ 1 uM value, item COc1cccc(-n2c([C@@H]3CCN3c3ncnc(N)c3C#N)nn3ccc(Cl)c3c2=O)c1 [Compound 35] −6.6

----------
Below, each of the molecules is paired with its reported PI3Kδ IH % @ 1 uM value.
target: p110δ/p85α (Homo sapiens); experiment: Transcreener KINASE Assay, kinase inhibition of p110δ/p85α; format: biochemical; details: 1 uM test compound
Provide the reading as a plain figure in %.

CC(Nc1nc(N)nc2c1C(=O)CCN2)c1cn2ccc(F)c2c(=O)n1-c1ccccc1 (single isomer, unassigned) [Compound 407] :: 94.9

Record request: PI3Kδ IH % @ 1 uM value, item O=c1c2c(Cl)ccn2nc([C@@H]2CCCN2c2ncnc3[nH]nnc23)n1-c1ccccc1 [Compound 220] 84.8

Record request: PI3Kδ IH % @ 1 uM value, item N#Cc1c[nH]c2ncnc(N3CC[C@H]3c3nn4ccc(Cl)c4c(=O)n3-c3ccc(F)cc3)c12 [Compound 37] 81.2

Record request: PI3Kδ IH % @ 1 uM value, item Nc1ccc(-c2n[nH]c3ncnc(N4CC[C@H]4c4nn5ccc(Cl)c5c(=O)n4-c4ccccc4)c23)cn1 [Compound 169] 88.0

----------
Below, each of the compounds is paired with its reported pIC50 value.
molecular target: p110β/p85α (Homo sapiens); assay: Transcreener KINASE Assay, kinase inhibition of p110β/p85α; conditions: read-out: PI3Kβ IC50
Sequence (P42338 whole entry): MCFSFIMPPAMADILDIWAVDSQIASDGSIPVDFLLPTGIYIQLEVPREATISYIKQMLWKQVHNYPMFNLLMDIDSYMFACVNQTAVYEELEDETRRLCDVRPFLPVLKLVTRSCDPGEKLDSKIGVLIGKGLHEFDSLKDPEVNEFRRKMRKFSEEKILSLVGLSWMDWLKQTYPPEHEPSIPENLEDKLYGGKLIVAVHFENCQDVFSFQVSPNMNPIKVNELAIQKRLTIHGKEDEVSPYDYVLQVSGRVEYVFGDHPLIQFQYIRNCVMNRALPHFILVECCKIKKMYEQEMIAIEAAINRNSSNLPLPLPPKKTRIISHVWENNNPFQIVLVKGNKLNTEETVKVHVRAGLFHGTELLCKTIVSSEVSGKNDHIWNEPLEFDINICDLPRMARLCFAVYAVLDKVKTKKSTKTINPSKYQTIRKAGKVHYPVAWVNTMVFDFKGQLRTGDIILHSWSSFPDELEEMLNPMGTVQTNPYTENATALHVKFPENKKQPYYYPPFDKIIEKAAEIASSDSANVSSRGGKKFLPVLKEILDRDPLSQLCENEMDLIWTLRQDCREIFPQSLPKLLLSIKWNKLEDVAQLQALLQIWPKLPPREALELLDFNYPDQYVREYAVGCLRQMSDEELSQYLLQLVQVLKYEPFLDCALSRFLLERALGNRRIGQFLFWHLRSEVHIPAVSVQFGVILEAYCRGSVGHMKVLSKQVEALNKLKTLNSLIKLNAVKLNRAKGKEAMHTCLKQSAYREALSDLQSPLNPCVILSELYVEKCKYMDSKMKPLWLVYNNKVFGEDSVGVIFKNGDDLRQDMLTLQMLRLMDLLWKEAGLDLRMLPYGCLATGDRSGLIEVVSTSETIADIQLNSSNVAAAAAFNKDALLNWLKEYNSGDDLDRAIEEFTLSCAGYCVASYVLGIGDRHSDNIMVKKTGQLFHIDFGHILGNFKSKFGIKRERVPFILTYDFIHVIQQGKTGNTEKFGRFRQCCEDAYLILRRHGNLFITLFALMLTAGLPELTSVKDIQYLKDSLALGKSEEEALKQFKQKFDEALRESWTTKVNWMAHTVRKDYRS
Sequence (P27986 2-724 partner): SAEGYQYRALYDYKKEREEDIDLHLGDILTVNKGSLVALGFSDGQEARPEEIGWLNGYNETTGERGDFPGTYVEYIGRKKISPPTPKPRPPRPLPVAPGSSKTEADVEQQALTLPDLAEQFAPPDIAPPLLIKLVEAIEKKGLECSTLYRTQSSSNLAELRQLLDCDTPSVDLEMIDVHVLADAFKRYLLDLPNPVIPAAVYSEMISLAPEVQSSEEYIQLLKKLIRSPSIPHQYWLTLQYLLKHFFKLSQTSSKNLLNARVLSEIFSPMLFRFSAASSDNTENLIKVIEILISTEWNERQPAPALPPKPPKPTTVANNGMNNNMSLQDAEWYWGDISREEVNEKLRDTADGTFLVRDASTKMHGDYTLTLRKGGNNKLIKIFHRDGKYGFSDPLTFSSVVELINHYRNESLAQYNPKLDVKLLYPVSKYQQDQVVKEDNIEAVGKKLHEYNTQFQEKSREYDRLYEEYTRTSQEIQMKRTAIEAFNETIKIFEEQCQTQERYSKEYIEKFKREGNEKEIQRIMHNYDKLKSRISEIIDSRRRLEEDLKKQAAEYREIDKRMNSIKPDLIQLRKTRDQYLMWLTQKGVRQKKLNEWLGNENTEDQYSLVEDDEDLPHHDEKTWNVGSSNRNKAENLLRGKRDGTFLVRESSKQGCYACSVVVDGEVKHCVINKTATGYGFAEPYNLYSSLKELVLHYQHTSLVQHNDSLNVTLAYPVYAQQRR
Keep it numeric: pIC50 is minus log10 of the concentration in mol/L.

O=c1c2c(Cl)ccn2nc([C@@H]2C[C@H](F)CN2c2ncnc3[nH]cnc23)n1-c1cccc(F)c1 [Compound 214] :: 6.57
CC(=O)c1cnc(N)nc1N1CC(C)(C)C1c1nn2ccc(Cl)c2c(=O)n1-c1ccccc1 (stereo in doubt) [Compound 484] :: 7.66
Cc1nc(N)nc(N2C[C@H](C)[C@H]2c2nn3ccc(Cl)c3c(=O)n2-c2ccccn2)c1C#N [Compound 478] :: 7.49
N#Cc1c[nH]c2ncnc(N3C[C@@H](F)C[C@H]3c3nn4ccc(Cl)c4c(=O)n3-c3ccccn3)c12 [Compound 345] :: 7.55
CNC(=O)c1c[nH]c2ncnc(N3CCC[C@H]3c3nn4ccc(Cl)c4c(=O)n3-c3ccccc3)c12 [Compound 96] :: 6.77

Record Cc1ccn2nc([C@@H]3CCCN3c3ncnc(N)c3C#N)n(-c3ccccc3)c(=O)c12 [Compound 189] : what is its pIC50 with p110β/p85α (Homo sapiens)? 7.06

Record Cc1ccn2cc(C(C)Nc3ncnc(N)c3C#N)n(-c3ccccc3)c(=O)c12 (stereo not drawn) [Compound 90] : what is its pIC50 with p110β/p85α (Homo sapiens)? 7.62
